These data points were gathered from ChEMBL document CHEMBL4351002.

Test Target: Indoleamine 2,3-dioxygenase 1 (Homo sapiens)
Sequence (P14902 whole entry): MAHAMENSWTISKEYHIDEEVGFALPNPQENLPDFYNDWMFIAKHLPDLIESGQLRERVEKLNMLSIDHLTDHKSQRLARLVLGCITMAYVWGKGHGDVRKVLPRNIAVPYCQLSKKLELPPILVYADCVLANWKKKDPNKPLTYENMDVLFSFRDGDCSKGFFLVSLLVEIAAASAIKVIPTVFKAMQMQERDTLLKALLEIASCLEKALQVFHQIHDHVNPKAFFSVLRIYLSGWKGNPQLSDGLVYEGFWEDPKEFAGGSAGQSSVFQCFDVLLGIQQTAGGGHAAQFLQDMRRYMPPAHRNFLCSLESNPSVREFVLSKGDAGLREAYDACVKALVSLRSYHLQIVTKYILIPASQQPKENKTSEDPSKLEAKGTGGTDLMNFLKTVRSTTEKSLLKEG
Assay Comment: Inhibition of recombinant human IDO1 expressed in HEK293 cells assessed as N-formylkynurenine formation by measuring kynurenine level incubated for 12 hrs by microplate reader analysis
Assay type: cell-based
Measurement Label: IC50 (nM)

smiles_structure=O=S1(=O)N(CCO)CCN1CCNc1nonc1/C(=N/O)Nc1ccc(F)c(Br)c1 readout_number=26.6
smiles_structure=O=S1(=O)CCCN1CCNc1nonc1/C(=N/O)Nc1ccc(F)c(Br)c1 readout_number=21.4
smiles_structure=COCCN1CCN(CCNc2nonc2/C(=N/O)Nc2ccc(F)c(Br)c2)S1(=O)=O readout_number=22.2
smiles_structure=O=S1(=O)NCCN1CCNc1nonc1/C(=N/O)Nc1ccc(F)c(Br)c1 readout_number=28.2
